Test system: biotinyl-Leu-oxazolone
experimentNotes: self-aminoacylation, catalytic enhancement (BLO) (fold over background); higher = more active; k-Seq, kA / k0A0; sequences stand for … in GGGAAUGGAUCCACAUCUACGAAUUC…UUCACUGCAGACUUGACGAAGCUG
This sample holds only a part of the variants without activity.
self-aminoacylation listing for selected sequences.
recordedEndpoint: self-aminoacylation

chain: AUUACCCGGGUCAUCGGGUGA [Fam2.1 aminoacylation ribozyme variant]
recordedEndpoint: self-aminoacylation
resultValue: 14.7
--
chain: ACACACUUAAAGCAAUCGGUC [Fam1B.1 aminoacylation ribozyme variant]
recordedEndpoint: self-aminoacylation
resultValue: 0.923
--
chain: AUACACCUAGGUCAUCGGUUG [Fam2.2 aminoacylation ribozyme variant]
recordedEndpoint: self-aminoacylation
resultValue: 1.31
--
chain: CCACACUUCUAGCAAUCUGUC [Fam1B.1 aminoacylation ribozyme variant]
recordedEndpoint: self-aminoacylation
resultValue: 0.354

====

System: biotinyl-Met-oxazolone
experimentNotes: self-aminoacylation, catalytic enhancement (BMO) (fold over background); higher = more active; k-Seq, kA / k0A0; sequences stand for … in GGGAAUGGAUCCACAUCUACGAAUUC…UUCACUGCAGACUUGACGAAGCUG
This sample holds only a part of the variants without activity.
Binned self-aminoacylation; ranges: lo = under 1, med = from 1 up to 3, hi = 3 and over

chain: CCACACUUCAAACAAACGGUC [Fam1B.1 aminoacylation ribozyme variant]
targetEntity: biotinyl-Met-oxazolone
categoryLabel: lo

chain: AAGUUUGCUAAUAUUCGCAUG [Fam3.1 aminoacylation ribozyme variant]
targetEntity: biotinyl-Met-oxazolone
categoryLabel: med

chain: GUUCACCUAUGUCAUCGGGUG [Fam2.2 aminoacylation ribozyme variant]
targetEntity: biotinyl-Met-oxazolone
categoryLabel: hi

chain: AUUCCCCUGGGCAUCGAGUGA [Fam2.1 aminoacylation ribozyme variant]
targetEntity: biotinyl-Met-oxazolone
categoryLabel: hi

chain: AUUCCCCUGGUCAUGGAGUGA [Fam2.1 aminoacylation ribozyme variant]
targetEntity: biotinyl-Met-oxazolone
categoryLabel: hi

chain: AAGUUGGCUUAUAGUCGCAAG [Fam3.1 aminoacylation ribozyme variant]
targetEntity: biotinyl-Met-oxazolone
categoryLabel: med

chain: CUACCUCAAAAAAUCGGUCUG [Fam1A.1 aminoacylation ribozyme variant]
targetEntity: biotinyl-Met-oxazolone
categoryLabel: med

chain: AGUCACCUAGGUCAGCGGGUG [Fam2.2 aminoacylation ribozyme variant]
targetEntity: biotinyl-Met-oxazolone
categoryLabel: hi

chain: CUACUGCAAACAAUUGGUCUG [Fam1A.1 aminoacylation ribozyme variant]
targetEntity: biotinyl-Met-oxazolone
categoryLabel: lo

chain: CCACACGUCAAUCAAUCGGUC [Fam1B.1 aminoacylation ribozyme variant]
targetEntity: biotinyl-Met-oxazolone
categoryLabel: med

chain: AUUCACUUAGGUCAUCUGGUG [Fam2.2 aminoacylation ribozyme variant]
targetEntity: biotinyl-Met-oxazolone
categoryLabel: hi

chain: AUUACCCUGGUCAUCGAGGGA [Fam2.1 aminoacylation ribozyme variant]
targetEntity: biotinyl-Met-oxazolone
categoryLabel: hi

chain: CAACUUCAAACAAUCGGUCUU [Fam1A.1 aminoacylation ribozyme variant]
targetEntity: biotinyl-Met-oxazolone
categoryLabel: med

chain: AUUCACCAAAGUCAUCGGGUG [Fam2.2 aminoacylation ribozyme variant]
targetEntity: biotinyl-Met-oxazolone
categoryLabel: hi

chain: UUUACCCUGGUCAUCGAGUAA [Fam2.1 aminoacylation ribozyme variant]
targetEntity: biotinyl-Met-oxazolone
categoryLabel: hi

chain: CCACAUUUCAAGCAAUCGUUC [Fam1B.1 aminoacylation ribozyme variant]
targetEntity: biotinyl-Met-oxazolone
categoryLabel: lo

chain: AUUAACCUGGUCAUGGAGUGA [Fam2.1 aminoacylation ribozyme variant]
targetEntity: biotinyl-Met-oxazolone
categoryLabel: hi

chain: CCACACUUUAAGCAAUCGUUC [Fam1B.1 aminoacylation ribozyme variant]
targetEntity: biotinyl-Met-oxazolone
categoryLabel: lo

chain: AAGUAUGCUAAUAGACGCAAG [Fam3.1 aminoacylation ribozyme variant]
targetEntity: biotinyl-Met-oxazolone
categoryLabel: lo

chain: CCACACUUCAUGCAAUCGGGC [Fam1B.1 aminoacylation ribozyme variant]
targetEntity: biotinyl-Met-oxazolone
categoryLabel: med

chain: CAACACUUCAAGCAAGCGGUC [Fam1B.1 aminoacylation ribozyme variant]
targetEntity: biotinyl-Met-oxazolone
categoryLabel: med

chain: CUACUUCAAACAAUUAGUCUG [Fam1A.1 aminoacylation ribozyme variant]
targetEntity: biotinyl-Met-oxazolone
categoryLabel: lo

chain: AUUAACAUAGGUCAUCGGGUG [Fam2.2 aminoacylation ribozyme variant]
targetEntity: biotinyl-Met-oxazolone
categoryLabel: hi

chain: AAGUUUGCUAAUAGUCCCGAG [Fam3.1 aminoacylation ribozyme variant]
targetEntity: biotinyl-Met-oxazolone
categoryLabel: med

chain: AUUACCCCGGUCAUCUAGUGA [Fam2.1 aminoacylation ribozyme variant]
targetEntity: biotinyl-Met-oxazolone
categoryLabel: hi

chain: UCACACUCCAAGCAAUCGGUC [Fam1B.1 aminoacylation ribozyme variant]
targetEntity: biotinyl-Met-oxazolone
categoryLabel: lo

chain: AAGUUUGCUGAUACUCGCAAG [Fam3.1 aminoacylation ribozyme variant]
targetEntity: biotinyl-Met-oxazolone
categoryLabel: lo

chain: CCACACUUAAAGCAAACGGUC [Fam1B.1 aminoacylation ribozyme variant]
targetEntity: biotinyl-Met-oxazolone
categoryLabel: lo

chain: AAGUUUGAUAAUAGUAGCAAG [Fam3.1 aminoacylation ribozyme variant]
targetEntity: biotinyl-Met-oxazolone
categoryLabel: lo

chain: CCACACUUCAAUCAAUAGGUC [Fam1B.1 aminoacylation ribozyme variant]
targetEntity: biotinyl-Met-oxazolone
categoryLabel: lo

chain: AUCCACCUGGGUCAUCGGGUG [Fam2.2 aminoacylation ribozyme variant]
targetEntity: biotinyl-Met-oxazolone
categoryLabel: hi

chain: CCAGACUUCAAGCCAUCGGUC [Fam1B.1 aminoacylation ribozyme variant]
targetEntity: biotinyl-Met-oxazolone
categoryLabel: med

chain: CAACUUCAAAAAAUCGGUCUG [Fam1A.1 aminoacylation ribozyme variant]
targetEntity: biotinyl-Met-oxazolone
categoryLabel: med

chain: CUACUUCAAAUAAUCGGUCAG [Fam1A.1 aminoacylation ribozyme variant]
targetEntity: biotinyl-Met-oxazolone
categoryLabel: lo

====

Tested on: biotinyl-Phe-oxazolone
experimentNotes: self-aminoacylation, catalytic enhancement (BFO) (fold over background); higher = more active; k-Seq, kA / k0A0; sequences stand for … in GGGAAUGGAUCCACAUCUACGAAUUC…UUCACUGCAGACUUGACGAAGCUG
Variants at the floor of the assay were thinned out.

chain: AUUACCCUCGACAUCGAGUGA [Fam2.1 aminoacylation ribozyme variant]
self-aminoacylation: 83
--
chain: AAGAUUGCUAAUAGUCGCGAG [Fam3.1 aminoacylation ribozyme variant]
self-aminoacylation: 1.27
--
chain: AUUAGCCUGGUCAUCGAGCGA [Fam2.1 aminoacylation ribozyme variant]
self-aminoacylation: 2.04
--
chain: AAGUUUCCUAAUAGUCGCAAC [Fam3.1 aminoacylation ribozyme variant]
self-aminoacylation: 2.42
--
chain: AUUUUCCUAGGUCAUCGGGUG [Fam2.2 aminoacylation ribozyme variant]
self-aminoacylation: 30.9
--
chain: CUACUUCUAACAAUCGAUCUG [Fam1A.1 aminoacylation ribozyme variant]
self-aminoacylation: 0.698
--
chain: AUUCACCUUGGUCAUCGAGUG [Fam2.2 aminoacylation ribozyme variant]
self-aminoacylation: 8.55
--
chain: AUUCCCCUCGUCAUCGAGUGA [Fam2.1 aminoacylation ribozyme variant]
self-aminoacylation: 15.8
--
chain: AUUCAUCUAAGUCAUCGGGUG [Fam2.2 aminoacylation ribozyme variant]
self-aminoacylation: 86.6

====

Test system: biotinyl-Val-oxazolone
experimentNotes: self-aminoacylation, catalytic enhancement (BVO) (fold over background); higher = more active; k-Seq, kA / k0A0; sequences stand for … in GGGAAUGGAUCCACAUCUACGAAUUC…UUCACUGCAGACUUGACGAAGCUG
Fewer inactive variants are shown than the library holds.
recordedEndpoint: self-aminoacylation

chain: AUUACCCUAGGCAUCGAGUGA [Fam2.1 aminoacylation ribozyme variant]
resultValue: 2.68
//
chain: AUAACCCUGGUCAUCGAGUGA [Fam2.1 aminoacylation ribozyme variant]
resultValue: 8.59
//
chain: CCACACUUCAAACAAUCGGUC [Fam1B.1 aminoacylation ribozyme variant]
resultValue: 1.53
//
chain: AAGUUUGCUAAUAGUCGUCAG [Fam3.1 aminoacylation ribozyme variant]
resultValue: 0.905
//
chain: AAGUUGGCUUAUAGUCGCAAG [Fam3.1 aminoacylation ribozyme variant]
resultValue: 1.61

====

System: biotinyl-Ile-oxazolone
experimentNotes: self-aminoacylation, catalytic enhancement (BIO) (fold over background); higher = more active; k-Seq, kA / k0A0; sequences stand for … in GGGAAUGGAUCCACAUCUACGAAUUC…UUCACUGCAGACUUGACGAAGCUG
This sample holds only a part of the variants without activity.
Lab note: anything with self-aminoacylation at or over 2 counts as yes; the rest go in no.

chain: UCUCACUUCAAGCAAUCGGUC [Fam1B.1 aminoacylation ribozyme variant]
categoryLabel: no
--
chain: AUUCCCCUAGGUCCUCGGGUG [Fam2.2 aminoacylation ribozyme variant]
categoryLabel: yes
--
chain: CGACACUUCGAGCAAUCGGUC [Fam1B.1 aminoacylation ribozyme variant]
categoryLabel: no
--
chain: AUUAGCCUGGUCAUCGAGCGA [Fam2.1 aminoacylation ribozyme variant]
categoryLabel: yes
--
chain: AAGUUAGCUCAUAGUCGCAAG [Fam3.1 aminoacylation ribozyme variant]
categoryLabel: no
--
chain: AUUCCCCUGGGCAUCGAGUGA [Fam2.1 aminoacylation ribozyme variant]
categoryLabel: yes
--
chain: CCACACUUCGAGCAAUCAGUC [Fam1B.1 aminoacylation ribozyme variant]
categoryLabel: no
--
chain: AGUAACCUAGGUCAUCGGGUG [Fam2.2 aminoacylation ribozyme variant]
categoryLabel: yes
--
chain: AUUACCCUGAUCAUUGAGUGA [Fam2.1 aminoacylation ribozyme variant]
categoryLabel: yes
--
chain: AUUCACCUAGGUGAUCCGGUG [Fam2.2 aminoacylation ribozyme variant]
categoryLabel: yes
--
chain: AUUCCCAUGGUCAUCGAGUGA [Fam2.1 aminoacylation ribozyme variant]
categoryLabel: yes
--
chain: CUUCUUCAAACACUCGGUCUG [Fam1A.1 aminoacylation ribozyme variant]
categoryLabel: no
--
chain: AUUACCAAGGUCAUCGAGUGA [Fam2.1 aminoacylation ribozyme variant]
categoryLabel: yes
--
chain: AUUCACCUGGGUAAUCGGGUG [Fam2.2 aminoacylation ribozyme variant]
categoryLabel: yes
--
chain: CCACACUACAAGCAACCGGUC [Fam1B.1 aminoacylation ribozyme variant]
categoryLabel: no
--
chain: UAGUUUGCUACUAGUCGCAAG [Fam3.1 aminoacylation ribozyme variant]
categoryLabel: no
--
chain: AAGUUUGCUAAUAGACGGAAG [Fam3.1 aminoacylation ribozyme variant]
categoryLabel: no
--
chain: UAGUUUGCUUAUAGUCGCAAG [Fam3.1 aminoacylation ribozyme variant]
categoryLabel: no
--
chain: ACUACCCUGGUCAUGGAGUGA [Fam2.1 aminoacylation ribozyme variant]
categoryLabel: yes
--
chain: CCACUCUUCGAGCAAUCGGUC [Fam1B.1 aminoacylation ribozyme variant]
categoryLabel: no
--
chain: AUUCACUUAGGUCAUCUGGUG [Fam2.2 aminoacylation ribozyme variant]
categoryLabel: yes
--
chain: UCACACUUCAAGCAAUCGAUC [Fam1B.1 aminoacylation ribozyme variant]
categoryLabel: no
--
chain: CAACACUUCAAGCAAUCGGGC [Fam1B.1 aminoacylation ribozyme variant]
categoryLabel: yes
--
chain: AAGUUUCCUAAUAGUCGUAAG [Fam3.1 aminoacylation ribozyme variant]
categoryLabel: no
--
chain: AAAUUUGCUAAUAGUCGCAAA [Fam3.1 aminoacylation ribozyme variant]
categoryLabel: yes
--
chain: CCCCACUUCAAGCAAUCGGUG [Fam1B.1 aminoacylation ribozyme variant]
categoryLabel: yes
--
chain: GUUCACCUAGGUCAGCGGGUG [Fam2.2 aminoacylation ribozyme variant]
categoryLabel: yes
--
chain: AAGUAUGCUAAUAGUCGGAAG [Fam3.1 aminoacylation ribozyme variant]
categoryLabel: no
--
chain: GUACUUCAAACUAUCGGUCUG [Fam1A.1 aminoacylation ribozyme variant]
categoryLabel: no
--
chain: CUACUUCAAAUAAUCGCUCUG [Fam1A.1 aminoacylation ribozyme variant]
categoryLabel: no
--
chain: CGACUUCAAACAGUCGGUCUG [Fam1A.1 aminoacylation ribozyme variant]
categoryLabel: no
--
chain: AUUACGCUGGUCAACGAGUGA [Fam2.1 aminoacylation ribozyme variant]
categoryLabel: yes
--
chain: AGUCACCUAGGUCAGCGGGUG [Fam2.2 aminoacylation ribozyme variant]
categoryLabel: yes
--
chain: AAGUUUUCUAAUAGUCGCCAG [Fam3.1 aminoacylation ribozyme variant]
categoryLabel: no
